Measured normalized growth, listed per entry.
assay: chemical genetic growth profiling, strain panel (AID 1159580);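 also: tested at 20 µM; growth read once vehicle control cultures reached saturation at 30 °C; 1 = growth at the plate median or of vehicle wells; lower values mean less growth of the strain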; conditions: S. cerevisiae deletion strains, growth OD, locus YNL071W, strain lat1, active compounds read low
The campaign covered roughly 5,500 compounds. About 2,000 (36%) were called active. Another 18% or so got no clear call; they are omitted. The list shows a part of the results.
Enter a number only.

                                   compound  measured_endpoint  assay_result
0  CO/N=C(\C(=O)N[C@@H]1C(=O)N2C(C(=O)O)=C(COC(C)=O)CS[C@H]12)c1csc(N)n1  normalized growth         0.989

For record Cc1cccc(C)c1NC1=NCCCS1 the listed normalized growth is 1.01

Short answer for O=c1cc(-c2ccccc2O)oc2cc(O)ccc12 : normalized growth was 0.991

====

test: chemical genetic growth profiling, strain panel (AID 1159580);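 also: tested at 20 µM; growth read once vehicle control cultures reached saturation at 30 °C; 1 = growth at the plate median or of vehicle wells; lower values mean less growth of the strain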; settings: S. cerevisiae deletion strains, growth OD, locus YMR205C, strain PFK2, active compounds read low
Hit rate of the full screen: of about 5,500 compounds, about 2,000 (36%) were called active. About 18% were inconclusive and are not listed. Some of the results follow.
Attribute: normalized growth
API doc: respond with a numeric literal and nothing else, no unit.

# annotated cases, reported normalized growth shown
>>> print(df.to_string())
                           molecular_string  assay_result
0                  CCNC(=O)CC[C@H](N)C(=O)O          1.01
1  COC(=O)C[C@H]1C(C)(C)C(=O)[C@@H]2CC3=C(CC[C@]4(C)C3=CC(=O)O[C@H]4c3ccoc3)[C@@]1(C)C2=O         0.997
2               NC(N)=NS(=O)(=O)c1ccc(N)cc1             1

normalized growth for Nc1ccc(N=Nc2ccccc2)c(N)n1 is 0.568

====

assay: chemical genetic growth profiling, strain panel (AID 1159580);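 also: tested at 20 µM; growth read once vehicle control cultures reached saturation at 30 °C; 1 = growth at the plate median or of vehicle wells; lower values mean less growth of the strain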; conditions: S. cerevisiae deletion strains, growth OD, locus YOR080W, strain dia2, active compounds read low
Out of some 5,500 compounds screened, about 2,000 (36%) were called active. About 18% were inconclusive and are not listed. The list shows a part of the results.
Measured Endpoint: normalized growth
The response must contain the number and no unit.

>>> df
                                   compound  assay_result
0  C=C1CCC(C2CC(=O)OC2=O)C(=O)CCC2C1CC2(C)C (stereo unspecified)         0.993
1  NS(=O)(=O)c1cc2c(cc1Cl)NC(C(Cl)Cl)NS2(=O)=O (stereo unspecified)         0.984
2  C=C1C(=O)O[C@@H]2C3O[C@]3(C)CC/C=C(\C)CC[C@@H]12 (stereo partly specified)         0.998

Value of normalized growth reported for the compound C=C1CCC2C(CC2(C)C)C(=O)CCC1O (stereo unspecified) is 0.995

Recorded normalized growth (compound COc1ccc([C@H]2Oc3cc(OC)cc(OC)c3C[C@H]2O)cc1 ): 1.01

// field: normalized growth; key: COc1ccc2c(c1)O[C@H]1c3ccc(OC)cc3OC[C@@H]21 ; value = 1.02

Please fill in: normalized growth reported for COc1ccc2c(c1OC)C(=O)OC2[C@H]1c2c(cc3c(c2OC)OCO3)CCN1C (stereo partly specified) = 1.04
